All figures here come from ChEMBL document CHEMBL1122484.

experiment: Pharmacokinetic parameter k2 was determined; type: ADME
Assign 1 to entries whose k2 meets or exceeds 0.03 min⁻¹; assign 0 to the rest.

compound=NC(=O)N(CCCl)N=O category_label=1
compound="O=NN(CCCl)C(=O)N[C@H]1C(O)O[C@H](CO)[C@@H](O)[C@@H]1O (stereo not given in full)" category_label=1
compound="O=NN(CCCl)C(=O)NC1CCC(=O)NC1=O (stereo not given)" category_label=0

## Task Could you verify whether the entry O=NN(CCCl)C(=O)NCCCl shows k2 of no less than 0.03 min⁻¹?
## Result 0

## Task Say whether O=NN(CCCl)C(=O)NC1CCCCC1 shows k2 of 0.03 min⁻¹ or more.
## Result 0

* * *

Below, each entry is listed alongside its reported EC50.
test system: P388; assay: Mean value for the exposure for P388 to the drug for a period of 60 min; format: functional; conditions: Mus musculus, P388, 1 h; read-out: ED50 (the source's name)

Below: 3 compounds and their reported EC50.
compound="O=NN(CCCl)C(=O)N[C@H]1C(O)O[C@H](CO)[C@@H](O)[C@@H]1O (stereo not given in full) [CHLOROZOTOCIN]" readout_value="17 µM"
compound="O=NN(CCCl)C(=O)NCCCl [CARMUSTINE]" readout_value="13.3 µM"
compound=NC(=O)N(CCCl)N=O readout_value="6 µM"

get_value(item= O=NN(CCCl)C(=O)NC1CCCCC1 [LOMUSTINE] , readout=EC50) returns 13 µM

Lab book: EC50 of O=NN(CCCl)C(=O)NC1CCC(=O)NC1=O (stereo not given) noted as 8.1 µM
